Compiled IC50 measurements on human ACC2 (Homo sapiens (Human)) taken from the literature.
The answer is to be given in nM; state only the numeric part.

Recorded results for 5 molecules are shown here.
Cc1ccc(-c2ccc(Cl)cc2)c(C)c1C1=C(O)C2(CCC3(CCCO3)CC2)NC1=O (centres unmarked)
9400
CC(=O)N[C@@H](C)CCc1ccc(Oc2ccc(OC(C)C)nc2)cc1
30
CC(=O)NC(C)Cc1ccc(C#Cc2cccc(C(=O)N3CCC(C(=O)OC(C)(C)C)C3)c2)cc1 (centres unmarked)
22000
C[C@H](NC(=O)C1CCC1)c1ccc(CN2Cc3ccc(OCC4CC4)cc3C(F)C2)cc1 (some centres unmarked)
72
C[C@H](NC(=O)c1cncs1)c1ccc(CN2CCc3c(cccc3C(F)(F)F)C2)cc1
85

Ask: // lookup IC50 for CCCCn1ccc(C#Cc2ccc(C(C)C(=O)NCC)cc2)cc1=O (centres unmarked)
Result: 2100

Ask: Same question for CCOc1ccc(N2CCC(Oc3ccc([C@H](C)NC(C)=O)cc3)C2)cc1F (some centres unmarked) please.
Result: 383

Ask: Same for COc1ccc(C#Cc2ccc(CC(C)NC(C)=O)cc2)nc1 (centres unmarked)
Result: 4300
